Cited source: patent US20260125446A1

- Assay target: T1, human serum albumin (human, UniProt P02768 25-609)
- T1 construct: Bought protein, immobilized on a CM5 chip by amine coupling; also called Human SA
- Measurement protocol: SPR (Biacore 8K), albumin immobilized on CM5 chip, 25 C, 1:1 kinetic fit
kon for assorted binders
Field: numeric (M⁻¹ s⁻¹). Do not append units.

| Binder | kon [M⁻¹ s⁻¹] |
| --- | --- |
| RLN Analog 6 (other, Single-chain fusion: RLN2 B chain (desB1) - L2 - RLN2 A chain - PGPQ-repeat L1 - VHH (C-terminal)) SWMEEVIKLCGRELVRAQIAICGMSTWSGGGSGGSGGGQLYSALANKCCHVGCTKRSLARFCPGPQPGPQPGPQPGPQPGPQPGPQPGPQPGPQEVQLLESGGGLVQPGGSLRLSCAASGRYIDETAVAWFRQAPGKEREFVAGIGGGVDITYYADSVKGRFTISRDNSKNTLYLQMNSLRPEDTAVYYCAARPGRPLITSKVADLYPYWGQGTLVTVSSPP | 470000 |
| RLN Analog 7 (other, Single-chain fusion: VHH - (G4Q)5 L1 - RLN2 B chain (desB1) - L2 - RLN2 A chain) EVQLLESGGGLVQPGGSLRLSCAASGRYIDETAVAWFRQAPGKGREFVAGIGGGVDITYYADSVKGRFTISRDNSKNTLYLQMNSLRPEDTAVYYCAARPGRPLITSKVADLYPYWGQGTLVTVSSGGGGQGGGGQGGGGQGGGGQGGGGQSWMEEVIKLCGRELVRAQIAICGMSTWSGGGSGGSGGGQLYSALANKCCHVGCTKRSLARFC | 1.9e+06 |

Given item RLN Analog 8 (other, Single-chain fusion: VHH - (PGPQ)8 L1 - RLN2 B chain (desB1) - L2 - RLN2 A chain) EVQLLESGGGLVQPGGSLRLSCAASGRYIDETAVAWFRQAPGKGREFVAGIGGGVDITYYADSVKGRFTISRDNSKNTLYLQMNSLRPEDTAVYYCAARPGRPLITSKVADLYPYWGQGTLVTVSSPGPQPGPQPGPQPGPQPGPQPGPQPGPQPGPQSWMEEVIKLCGRELVRAQIAICGMSTWSGGGSGGSGGGQLYSALANKCCHVGCTKRSLARFC , the value recorded as its kon is 1.5e+06

Given item RLN Analog 3 (other, Single-chain fusion: VHH - (G4Q)5 L1 - RLN2 B chain (desB1) - L2 - RLN2 A chain) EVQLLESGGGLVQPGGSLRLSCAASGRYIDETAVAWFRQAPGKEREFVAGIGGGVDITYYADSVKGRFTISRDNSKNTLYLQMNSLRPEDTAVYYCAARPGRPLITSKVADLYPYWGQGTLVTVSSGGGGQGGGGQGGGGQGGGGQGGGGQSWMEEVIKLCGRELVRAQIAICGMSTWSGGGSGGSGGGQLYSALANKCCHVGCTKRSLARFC , the value recorded as its kon is 1.4e+06

Given item RLN Analog 12 (other, Single-chain fusion: VHH - (G4Q)5 L1 - RLN2 B chain (desB1) - L2 of thirteen residues - RLN2 A chain (desA1-4)) EVQLLESGGGLVQPGGSLRLSCAASGRYIDETAVAWFRQAPGKGREFVAGIGGGVDITYYADSVKGRFTISRDNSKNTLYLQMNSLRPEDTAVYYCAARPGRPLITSKVADLYPYWGQGTLVTVSSGGGGQGGGGQGGGGQGGGGQGGGGQSWMEEVIKLCGRELVRAQIAICGMSTWSGGGSGGSGGSGGGALANKCCHVGCTKRSLARFC , the value recorded as its kon is 1.4e+06

Given item RLN Analog 10 (other, Single-chain fusion: RLN2 B chain (desB1) - L2 - RLN2 A chain - (PGPQ)8 L1 - VHH (C-terminal)) SWMEEVIKLCGRELVRAQIAICGMSTWSGGGSGGSGGGQLYSALANKCCHVGCTKRSLARFCPGPQPGPQPGPQPGPQPGPQPGPQPGPQPGPQEVQLLESGGGLVQPGGSLRLSCAASGRYIDETAVAWFRQAPGKGREFVAGIGGGVDITYYADSVKGRFTISRDNSKNTLYLQMNSLRPEDTAVYYCAARPGRPLITSKVADLYPYWGQGTLVTVSSPP , the value recorded as its kon is 550000

Given item RLN Analog 14 (other, Single-chain fusion: VHH - (PGPQ)8 L1 - RLN2 A chain (desA1-4) - L2 - RLN2 B chain (desB1)) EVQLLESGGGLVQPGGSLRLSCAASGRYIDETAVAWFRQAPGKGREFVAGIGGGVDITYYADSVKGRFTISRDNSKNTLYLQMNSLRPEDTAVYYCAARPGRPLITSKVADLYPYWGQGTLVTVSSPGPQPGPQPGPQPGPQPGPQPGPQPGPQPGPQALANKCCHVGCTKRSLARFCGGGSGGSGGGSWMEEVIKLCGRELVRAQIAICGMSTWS , the value recorded as its kon is 1.2e+06

Given item RLN Analog 13 (other, Single-chain fusion: VHH - (G4Q)5 L1 - RLN2 A chain (desA1-4) - L2 - RLN2 B chain (desB1)) EVQLLESGGGLVQPGGSLRLSCAASGRYIDETAVAWFRQAPGKGREFVAGIGGGVDITYYADSVKGRFTISRDNSKNTLYLQMNSLRPEDTAVYYCAARPGRPLITSKVADLYPYWGQGTLVTVSSGGGGQGGGGQGGGGQGGGGQGGGGQALANKCCHVGCTKRSLARFCGGGSGGSGGGSWMEEVIKLCGRELVRAQIAICGMSTWS , the value recorded as its kon is 1.4e+06

Given item RLN Analog 1 (other) EVQLLESGGGLVQPGGSLRLSCAASGRYIDETAVAWFRQAPGKEREFVAGIGGGVDITYYADSVKGRFTISRDNSKNTLYLQMNSLRPEDTAVYYCAARPGRPLITSKVADLYPYWGQGTLVTVSSGGGGQGGGGQGGGGQGGGGQGGGGQQLYSALANKCCHVGCTKRSLARFCGGGSGGSGGGSWMEEVIKLCGRELVRAQIAICGMSTWS , the value recorded as its kon is 980000
